B1: F1*; the commonest letter at each place (parent)
chain: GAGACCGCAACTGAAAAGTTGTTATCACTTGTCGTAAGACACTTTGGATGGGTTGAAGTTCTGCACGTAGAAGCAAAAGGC

# Variants of: B1
# experiment summary: fraction ligated after 30 min (ligated reads / total reads); higher = more ligase activity
# conditions used: with F1*sub RNA substrate (template-directed ligation), 42 °C
value type: fraction ligated

>>> observed_result("GAGACCGCAACTGAAAAGTTGTTATCACGTGTCGTAAGACACTTTCGATGGGTTGAAGTTCTGCACGTAGAAGCAAAAGGC")
0.786
>>> observed_result("GAGACCGCAACTGAAAAGTTGTAATCACTTGTCGTAAGACACTTTGGATGGGTTGACGTTCTGCACGTAGAAGCAAAAGGC")
0.805
>>> observed_result("GAGACCGCAACTGAAAAGTTGTTATCACTTGTCGTAAGACACGTTGGATGGGTTGACGTTCTGCACGTAGAAGCAAAAGGC")
0.809
>>> observed_result("GAGACCGCAACTGAAAAGTTGTTATCCCTTGTCGTAAGCCACTTTGGATGGGTTGAAGTTCTGCACGTAGAAGCAAAAGGC")
0.785
>>> observed_result("GAGACCGCAACTGAAAAGTTGTTATCAATTGTCGTAAGACACTGTGGATGGGTTGAAGTTCTGCACGTAGAAGCAAAAGGC")
0.798
>>> observed_result("GAGACCGCAACTGAAAAGTTGTTATCGCTTGTCGTAAGACACTTTTGATGGGTTGAAGTTCTGCACGTAGAAGCAAAAGGC")
0.796
>>> observed_result("GAGACCGCAACTGAAAAGTTGTTATCACTGGTCGCAAGACACTTTGGATGGGTTGAAGTTCTGCACGTAGAAGCAAAAGGC")
0.813
>>> observed_result("GAGACCGCAACTGAAAAGTTGTTATCACCTGTCGTAAGACAGTTTGGATGGGTTGAAGTTCTGCACGTAGAAGCAAAAGGC")
0.818
>>> observed_result("GAGACCGCAACTGAAAAGTTGTTATCACTTGTCGTAAGAACCTTTGGATGGGTTGAAGTTCTGCACGTAGAAGCAAAAGGC")
0.811
>>> observed_result("GAGACCGCAACTGAAAAGTTGTTATCGCTTCTCGTAAGACACTTTGGATGGGTTGAAGTTCTGCACGTAGAAGCAAAAGGC")
0.798
>>> observed_result("GAGACCGCAACTGAAAAGTTGTTATCATTTGTCGTAAGACACCTTGGATGGGTTGAAGTTCTGCACGTAGAAGCAAAAGGC")
0.781
>>> observed_result("GAGACCGCAACTGAAAAGTTGTCATCACTTGTCGTAAGACACTGTGGATGGGTTGAAGTTCTGCACGTAGAAGCAAAAGGC")
0.779
>>> observed_result("GAGACCGCAACTGAAAAGTTGTTATCACTTGTCCTAAGATACTTTGGATGGGTTGAAGTTCTGCACGTAGAAGCAAAAGGC")
0.803
>>> observed_result("GAGACCGCAACTGAAAAGTTGTTATCACTTGGCGTAAGACACTTTAGATGGGTTGAAGTTCTGCACGTAGAAGCAAAAGGC")
0.782
>>> observed_result("GAGACCGCAACTGAAAAGTTGTTATCACTTGTCGTAAGACACGTTGGATGGGTTGAGGTTCTGCACGTAGAAGCAAAAGGC")
0.803
>>> observed_result("GAGACCGCAACTGAAAAGTTGTTATCACTTGTCGTAAGAAACTATGGATGGGTTGAAGTTCTGCACGTAGAAGCAAAAGGC")
0.823
>>> observed_result("GAGACCGCAACTGAAAAGTTGTTATCACTTGTCGGAAGACACTTTAGATGGGTTGAAGTTCTGCACGTAGAAGCAAAAGGC")
0.809
>>> observed_result("GAGACCGCAACTGAAAAGTTGTAATCACGTGTCGTAAGACACTTTGGATGGGTTGAAGTTCTGCACGTAGAAGCAAAAGGC")
0.82
>>> observed_result("GAGACCGCAACTGAAAAGTTGTTATCACTCGCGGTAACGCGCTTTGGATGGGTTGAAGTTCTGCACGTAGAAGCAAAAGGC")
0.816
>>> observed_result("GAGACCGCAACTGAAAAGTTGTTATCACTTCTCGTAAGACACTTTTGATGGGTTGAAGTTCTGCACGTAGAAGCAAAAGGC")
0.784
>>> observed_result("GAGACCGCAACTGAAAAGTTGTTATCACTAGTCGTAAAACACTTTGGATGGGTTGAAGTTCTGCACGTAGAAGCAAAAGGC")
0.813
>>> observed_result("GAGACCGCAACTGAAAAGTTGTTATCGGTTGTCGTAAGACACTTTGGATGGGTTGAAGTTCTGCACGTAGAAGCAAAAGGC")
0.777
>>> observed_result("GAGACCGCAACTGAAAAGTTGTTTTCACTTGTCGTAAGACACTTTGGAGGGGTTGAAGTTCTGCACGTAGAAGCAAAAGGC")
0.783
>>> observed_result("GAGACCGCAACTGAAAAGTTGTTATCACTGGTCGTAAGACACTTCGGATGGGTTGAAGTTCTGCACGTAGAAGCAAAAGGC")
0.803
>>> observed_result("GAGACCGCAACTGAAAAGTTGTTATCACTCCTCGTAAGACACTTTGGATGGGTTGAAGTTCTGCACGTAGAAGCAAAAGGC")
0.789
>>> observed_result("GAGACCGCAACTGAAAAGTTGTTCTCACTTGTCGTAAGACACTTTGAATGGGTTGAAGTTCTGCACGTAGAAGCAAAAGGC")
0.806
>>> observed_result("GAGACCGCAACTGAAAAGTTGTTACCACTTGTCGAAAGACACTTTGGATGGGTTGAAGTTCTGCACGTAGAAGCAAAAGGC")
0.781
>>> observed_result("GAGACCGCAACTGAAAAGTTGTTATCACTTGTCGTAACAGACTTTGGATGGGTTGAAGTTCTGCACGTAGAAGCAAAAGGC")
0.813
>>> observed_result("GAGACCGCAACTGAAAAGTTGTTATCACTTTTCGTAAGACACTCTGGATGGGTTGAAGTTCTGCACGTAGAAGCAAAAGGC")
0.782
